System: HeLa Kyoto;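 further: synchronized HeLa Kyoto cells (double thymidine block for G1/S, nocodazole release for mitosis), protein amounts in NP-40 versus SDS lysates quantified by mass spectrometry, three biological replicates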
Experiment: solubility change mitosis vs G1/S (difference of NP-40 vs SDS log2 ratios) (log2 ratio difference); higher = more soluble in mitosis
Recorded endpoint: solubility change mitosis (log2)
Answers are plain numbers.

Example results:
INSERT INTO measurements (sequence_string, measured_result) VALUES
  ('MDGGDDGNLIIKKRFVSEAELDERRKRRQEEWEKVRKPEDPEECPEEVYDPRSLYERLQEQKDRKQQEYEEQFKFKNMVRGLDEDETNFLDEVSRQQELIEKQRREEELKELKEYRNNLKKVGISQENKKEVEKKLTVKPIETKNKFSQAKLLAGAVKHKSSESGNSVKRLKPDPEPDDKNQEPSSCKSLGNTSLSGPSIHCPSAAVCIGILPGLGAYSGSSDSESSSDSEGTINATGKIVSSIFRTNTFLEAP [FAM192A]', -0.000768),
  ('MLEPQENGVIDLPDYEHVEDETFPPFPPPASPERQDGEGTEPDEESGNGAPVRVPPKRTVKRNIPKLDAQRLISERGLPALRHVFDKAKFKGKGHEAEDLKMLIRHMEHWAHRLFPKLQFEDFIDRVEYLGSKKEVQTCLKRIRLDLPILHEDFVSNNDEVAENNEHDVTSTELDPFLTNLSESEMFASELSRSLTEEQQQRIERNKQLALERRQAKLLSNSQTLGNDMLMNTPRAHTVEEVNTDEDQKEESNGLNEDILDNPCNDAIANTLNEEETLLDQSFKNVQQQLDATSRNITEAR [TIPIN]', 0.273);

Please find the next sequence below.
Exercise: Give the value of solubility change mitosis (log2) reported for the following: MQWLRVRESPGEATGHRVTMGTAALGPVWAALLLFLLMCEIPMVELTFDRAVASGCQRCCDSEDPLDPAHVSSASSSGRPHALPEIRPYINITILKGDKGDPGPMGLPGYMGREGPQGEPGPQGSKGDKGEMGSPGAPCQKRFFAFSVGRKTALHSGEDFQTLLFERVFVNLDGCFDMATGQFAAPLRGIYFFSLNVHSWNYKETYVHIMHNQKEAVILYAQPSERSIMQSQSVMLDLAYGDRVWVRLFKRQRENAIYSNDFDTYITFSGHLIKAEDD [C1QTNF6]
Key: -0.235
